Known activity change, negative = cytotoxicity of a selection of molecules
Assay: Primary qHTS for Vero E6 cytotoxicity: counterscreen for inhibitors of SARS-S pseudo-typed particle cell entry (AID 1479150); note: % is set by controls: 0 for no effect and ±100 for the full control effect
Details: cell viability; series mostly up to 57.1 µM
Inconclusive results are not listed. Activity calls are given as the source filed them. Calls come from the whole dose curve.

Reference set (3 entries):
CCCCCCCCCCCCCCCCCCCCCCO	2.8% [at 0.573 µM] (inactive)
N[C@@H](CC(=O)O)C(=O)O	2.41% [at 5.34 µM] (inactive)
CC(C=CC=C(C)C=CC1=C(C)CCCC1(C)C)=CC=CC=C(C)C=CC=C(C)C=CC1=C(C)CCCC1(C)C	0.415% [at 0.573 µM] (inactive)

Kindly note the recorded activity change, negative = cytotoxicity for O=C(O)c1nc(=O)[nH]c(=O)[nH]1 , which is 2.99% [at 0.573 µM] (inactive)

molecule COc1c(OCCCN2CCOCC2)ccc2c3n(c(=NC(=O)c4cnc(N)nc4)nc12)CCN3 , activity change, negative = cytotoxicity observed: -14.8% [at 11.4 µM] (inactive)

Memo: Nc1ncnc2c1ncn2[C@@H]1O[C@H](COP(=O)(O)OP(=O)(O)OP(=O)(O)O)[C@@H](O)[C@H]1O , reported activity change, negative = cytotoxicity: -8.27% [at 0.573 µM] (inactive)
